test: Apparent permeability across apical to basolateral side in […] MDCK2 cells at 5 uM after 120 mins by LC/MS/MS analysis; format: ADME, cell-based, MDCK-II; settings: MDCK
value.type: Papp A→B at 2 h, 5 µM

>>> print(df.to_string())
                                   compound     result_value
0  CCC1C(=O)N(C)c2cnc(-n3ccnc3-c3ccc(F)cc3)nc2N1c1cc[nH]n1 (racemic)  13.2 ×10⁻⁶ cm/s
1  CC[C@@H]1C(=O)N(C)c2cnc(-c3c[nH]nc3-c3nccs3)nc2N1[C@H]1CCOC1  16.8 ×10⁻⁶ cm/s
2  CC[C@@H]1C(=O)N(C)c2cnc(-n3ccnc3-c3ccc(F)cc3)nc2N1[C@H]1CCOC1  23.4 ×10⁻⁶ cm/s
3  CC[C@@H]1C(=O)N(C)c2cnc(-n3ccnc3-c3ccc(F)cc3)nc2N1CCC(F)(F)F  15.8 ×10⁻⁶ cm/s

###

Parameter logP: see the listing below.
assay: Lipophilicity, log P of the compound; format: physicochemical; conditions: octanol/water; read-out: logP
value.type: logP

>>> df
                                   compound  result_value
0  CCC1C(=O)N(C)c2cnc(-n3ccnc3-c3ccccc3)nc2N1c1ccccc1 (racemic)           3.3
1  CC[C@@H]1C(=O)N(C)c2cnc(-n3ccnc3-c3ccccc3)nc2N1[C@@H]1CCOC1           1.8
2  CCC1C(=O)N(C)c2cnc(-n3ccnc3-c3ccc(F)cc3)nc2N1c1ccc(F)cc1 (racemic)           3.4
3  CCC1C(=O)N(C)c2cnc(-n3ccnc3-c3ccc(F)cc3)nc2N1c1cc[nH]n1 (racemic)           2.2
4  CC[C@@H]1C(=O)N(C)c2cnc(-n3ccnc3-c3ccc(F)cc3)nc2N1C1COC1           1.6
5  CC[C@@H]1C(=O)N(C)c2cnc(-n3ccnc3-c3ccccc3)nc2N1[C@H]1CCOC1           1.9
6  CC[C@@H]1C(=O)N(C)c2cnc(-n3ccnc3-c3ccc(F)cc3)nc2N1CCC(F)(F)F           3.1

###

experiment: Metabolic stability in rat liver microsomes assessed as compound remaining at 1 uM after 30 mins; type: ADME, Microsome; settings: read-out: Stability
value.type: remaining at 0.5 h, 1 µM (%)

                                   compound                value_type  result_value
0  CC[C@@H]1C(=O)N(C)c2cnc(-n3ccnc3-c3ccccc3)nc2N1C1CCCC1  remaining at 0.5 h, 1 µM             0
1  CCC1C(=O)N(C)c2cnc(-c3cn[nH]c3-c3ccccn3)nc2N1c1cnn(C)c1 (racemic)  remaining at 0.5 h, 1 µM            87
2  CC[C@@H]1C(=O)N(C)c2cnc(-n3ccnc3-c3ccccc3)nc2N1c1cncnc1  remaining at 0.5 h, 1 µM            76
3  CCC1C(=O)N(C)c2cnc(-n3ccnc3-c3ccc(F)cc3)nc2N1c1ccc(F)cc1 (racemic)  remaining at 0.5 h, 1 µM            11
4  CC[C@@H]1C(=O)N(C)c2cnc(-n3ccnc3-c3ccccc3)nc2N1CCC(F)(F)F  remaining at 0.5 h, 1 µM             0
5  CCC1(C)C(=O)N(C)c2cnc(-n3ccnc3-c3ccc(F)cc3)nc2N1CCC(F)(F)F (racemic)  remaining at 0.5 h, 1 µM            34
6  CC[C@@H]1C(=O)N(C)c2cnc(-c3c[nH]nc3-c3nccs3)nc2N1C(C)C  remaining at 0.5 h, 1 µM            38
7  CC[C@@H]1C(=O)N(C)c2cnc(-c3c[nH]nc3-c3ccc(F)cc3F)nc2N1c1cnn(C)c1  remaining at 0.5 h, 1 µM            13
8  CCC1C(=O)N(C)c2cnc(-n3ccnc3-c3ccc(F)cc3)nc2N1c1cc[nH]n1 (racemic)  remaining at 0.5 h, 1 µM            65
